B1: Protein piccolo, residues 1058 to 1114; numbered along this chain, Q9Y6V0 (parent)
chain: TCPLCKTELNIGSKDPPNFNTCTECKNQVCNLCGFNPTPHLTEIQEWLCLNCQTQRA

Variants of: B1
Experiment Summary: abundance fitness (aPCA) (normalised: wild type 0, dead -1); higher = more abundant; growth selection in yeast, the domain comes from the species named
Experimental Conditions: Homo sapiens
Reported values of abundance fitness for individual entries

Worked examples, 3 variants total:
- Construct Sequence: "TCPLCKTELNIGSKDPFNFNTCTECKNQVCNLCGFNPTPHLTEIQEWLCLNCQTQRA [P17F]"
  abundance fitness: -0.245
- Construct Sequence: "TCPLCKTELNIGSKDPPNFNTCTECKNQVCNLCGFNPTPCLTEIQEWLCLNCQTQRA [H40C]"
  abundance fitness: 0.046
- Construct Sequence: "TCPLCKTELNIGSKDPPNFNKCTECKNQVCNLCGFNPTPHLTEIQEWLCLNCQTQRA [T21K]"
  abundance fitness: 0.198

Req: I am curious: what abundance fitness value has been reported for TCDLCKTELNIGSKDPPNFNTCTECKNQVCNLCGFNPTPHLTEIQEWLCLNCQTQRA [P3D] ?
Resp: 0.095

Req: Please do the same for TCPLCKTELNIGSLDPPNFNTCTECKNQVCNLCGFNPTPHLTEIQEWLCLNCQTQRA [K14L] as well.
Resp: -0.644

Req: Please do the same for TCPLCKNELNIGSKDPPNFNTCTECKNQVCNLCGFNPTPHLTEIQEWLCLNCQTQRA [T7N] as well.
Resp: -0.007

Req: Please do the same for TCPLCPTELNIGSKDPPNFNTCTECKNQVCNLCGFNPTPHLTEIQEWLCLNCQTQRA [K6P] as well.
Resp: 0.104

Req: Please do the same for TCPLCKTELNIGSKDPPNFNTCTECKNQVCNLCGFNPTPHLVEIQEWLCLNCQTQRA [T42V] as well.
Resp: 0.073

Req: Please do the same for TCPLCKTELNIGSKDPPNFNTCTECKNQVCNLCGFNPTPHLTEIQEWYCLNCQTQRA [L48Y] as well.
Resp: -0.112

Req: Please do the same for TCPLCKTELNIGSKDPPNFNTCTECGNQVCNLCGFNPTPHLTEIQEWLCLNCQTQRA [K26G] as well.
Resp: 0.139

Req: Please do the same for TCPLCKTELNIGSKDPPNKNTCTECKNQVCNLCGFNPTPHLTEIQEWLCLNCQTQRA [F19K] as well.
Resp: -0.737

Reference for the values: the Human Domainome abundance scans (Beltran et al. 2025)
